Measured values drawn from PubChem BioAssay (Tox21) for this set.

experiment: A CellTox Green Cytotoxicity Assay to monitor cytotoxicity in HEK293 cells - 24 hour (AID 1224875); details: CellTox Green fluorescence; series mostly up to 76.8 µM; note: nearly all actives have a fitted effect of over 45% in size
Records with an inconclusive call do not appear. Active and inactive are the calls of the source. Calls come from the whole dose curve; as a rule, active = well fitted activation curve with a large enough effect in the repeat runs; inconclusive = weak or mixed curves; inactive = flat fitted curve, though single readings scatter.
observed-property: outcome

CC(C)CCCC(=O)O	inactive
C=CC(C)=CCC=C(C)C	inactive
CCCCCCCC/C=C\CCCCCCCC(=O)OC	inactive

---

Assay: qHTS assay to test for compound auto fluorescence at 535 nm (green) in HepG2 cell free culture (AID 720686)
Conditions: Cell-free medium, green autofluorescence 485/535 nm; series mostly up to 91.3 µM
From the text: U.S. Tox21 Program National Center for Advancing Translational Sciences [NCATS] NIH Chemical Genomics Center [NCGC] U.S. Environmental Protection Agency [EPA] National Institutes of Environmental Health Sciences [NIEHS] National Toxicology Program [NTP] U.S. Food and Drug Administration [FDA] Tox21 Assay Overview: Compound auto fluorescence often interferes with screening of the compound library against various biological targets and signaling pathways. […] This assay includes the green fluorescence data. […]
Active and inactive are the calls of the source. Calls come from the whole dose curve; as a rule, active = well fitted curve in the direction sought with a large enough effect in the repeat runs; inconclusive = weak or mixed curves; inactive = flat fitted curve, though single readings scatter.
observed-property: fluorescence, % of fluorescein control

Cc1ccccc1N1C(=O)c2cc(S(N)(=O)=O)c(Cl)cc2NC1C (configuration not stated)	inactive
CCOC(=O)OCC	inactive
CCCCCCCC/C=C\CCCCCCCC(=O)OC(CO)CO	inactive
O=C1OCCN1/N=C/c1ccc([N+](=O)[O-])o1	inactive
CN(C)C(=O)Nc1ccc(Oc2ccc(Cl)cc2)cc1	inactive
CNC(=O)N(c1ccccc1)c1ccccc1	inactive
O=C(CCCN1CCN(c2ccc(F)cc2)CC1)NC1c2ccccc2CSc2ccccc21 (configuration not stated)	inactive
NC(=O)Nc1ccc(Cl)c(Cl)c1	inactive
Brc1cc(-c2ccc(Br)c(Br)c2Br)cc(Br)c1Br	inactive
CCOC(=O)[C@@H](C)Oc1ccc(Oc2nc3ccc(Cl)cc3o2)cc1	inactive

Consider the molecule C[Si](NC1CCCCC1)(NC1CCCCC1)NC1CCCCC1 and give its measured fluorescence, % of fluorescein control.
inactive

Value lookup for fluorescence, % of fluorescein control; key = CCOC(=O)C(C)Oc1ccc(Oc2nc3ccc(Cl)cc3o2)cc1 (configuration not stated)
inactive
